For each of the compounds below, state its GI50.
System: NCI/ADR-RES
Assay: NCI tumour cell line growth inhibition, 48 h
Active and inactive are the calls of the source. Rule as the data show it: active = GI50 up to about 1.1 µM and inactive = higher.

Query :: Which GI50 value belongs to C[C@H]1CC[C@]2(NC1)O[C@H]1C[C@H]3[C@@H]4CC[C@H]5C[C@@H](O[C@@H]6O[C@H](CO)[C@H](O[C@@H]7O[C@H](CO)[C@@H](O)[C@H](O[C@@H]8OC[C@@H](O)[C@H](O)[C@H]8O)[C@H]7O[C@@H]7O[C@H](CO)[C@@H](O)[C@H](O)[C@H]7O)[C@H](O)[C@H]6O)CC[C@]5(C)[C@H]4CC[C@]3(C)[C@H]1[C@@H]2C ?
Result :: 1.9 µM (inactive)

Query :: Which GI50 value belongs to Cc1oc2c(c1C(=O)c1ccccc1)C(=O)c1ccccc1C2=O ?
Result :: 3.52 µM (inactive)

----------
Tested on: UO-31
Experiment: NCI tumour cell line growth inhibition, 48 h
Active and inactive are the calls of the source. No stated cut-off is given here; in the data, active = GI50 up to about 1.1 µM and inactive = higher.
Answer with one of the outcomes given here: active, inactive

Query :: Lab log entry: N/C(=N\O)N/N=C\c1c(O)cc(O)cc1O — outcome as called in the assay?
Result :: inactive

Query :: Lab log entry: C[C@H](CCC(=O)O)[C@H]1CC[C@H]2[C@@H]3[C@H](O)[C@H](O)[C@@H]4C[C@H](O)CC[C@]4(C)[C@H]3CC[C@]12C — outcome as called in the assay?
Result :: inactive

Query :: Lab log entry: CCCCC(C(=O)C(=O)NC1C2CC3CC(C2)CC1C3)C(=O)C(C)C (configuration not stated) — outcome as called in the assay?
Result :: inactive

Query :: Lab log entry: CC(C)(C)c1cc(C2=NN(c3ccccc3)C(c3ccccc3)C2)cc(C(C)(C)C)c1O (configuration not stated) — outcome as called in the assay?
Result :: inactive

Query :: Lab log entry: CC(C)(C)C1=CC(=CC=C2C=CN(CCCCCCCCCCCO)C=C2)C=C(C(C)(C)C)C1=O — outcome as called in the assay?
Result :: inactive

Query :: Lab log entry: COC(=O)c1c(O)ccc2c1c1c(n2Cc2ccc(Cl)cc2Cl)C(=O)c2ccccc2C1 — outcome as called in the assay?
Result :: inactive

Query :: Lab log entry: c1ccc(C2=NOC3COc4ccccc4OCC23)cc1 (configuration not stated) — outcome as called in the assay?
Result :: inactive

Query :: Lab log entry: COc1cc(/C=C/c2ccnc3ccccc23)cc(OC)c1OC — outcome as called in the assay?
Result :: active

Query :: Lab log entry: CC1CC[C@@]2(OC1)O[C@H]1[C@H](O)[C@H]3[C@@H]4CC[C@H]5C[C@@H](OC6OC(CO)C(OC7OC(CO)C(O)C(OC8OCC(O)C(O)C8O)C7OC7OC(CO)C(O)C(O)C7OC7OC(CO)C(O)C(O)C7O)C(O)C6O)[C@H](O)C[C@]5(C)[C@H]4CC[C@]3(C)[C@H]1[C@@H]2C (some centres not stated) — outcome as called in the assay?
Result :: inactive

Query :: Lab log entry: C=CCn1c2ccccc2c2c(C)c3cnccc3c(C)c21 — outcome as called in the assay?
Result :: inactive

Query :: Lab log entry: COc1ccc(NC(=O)C(C)Oc2ccc(OCC3CCCCC3)cc2)cc1 (configuration not stated) — outcome as called in the assay?
Result :: inactive

Query :: Lab log entry: NCC(=O)OCN1C(=O)C2C3C=CC(C2C1=O)C1C2C(=O)N(COC(=O)CN)C(=O)C2C31 (configuration not stated) — outcome as called in the assay?
Result :: inactive

Query :: Lab log entry: COC1=N[C@H](C(C)C)C(OC)=N[C@H]1Cc1ccc(C[C@@H]2N=C(OC)[C@@H](C(C)C)N=C2OC)s1 — outcome as called in the assay?
Result :: inactive

Query :: Lab log entry: C=C1CC=CC(C)(C)C1C/C=C(\C)C(O)CBr (configuration not stated) — outcome as called in the assay?
Result :: inactive

Query :: Lab log entry: CCOC(=O)C(C)(C)Oc1ccc2c(=O)cc(-c3ccc(Cl)cc3)oc2c1 — outcome as called in the assay?
Result :: inactive

Query :: Lab log entry: N=C(N)SC1c2ccccc2-c2cc([N+](=O)[O-])ccc21 (configuration not stated) — outcome as called in the assay?
Result :: inactive

Query :: Lab log entry: COC(=O)C(=O)C(C(=O)C(=O)Nc1nc2ccc(C)cc2s1)c1nc2ccc([N+](=O)[O-])cc2nc1O (configuration not stated) — outcome as called in the assay?
Result :: inactive

Where do the numbers come from? From ChEMBL document CHEMBL1201862.
